# test.target: ROCK1 (Homo sapiens)
# Construct: purchased Upstate/Chemicon 14-601
# Sequence (Q13464 17-535 limits assumed): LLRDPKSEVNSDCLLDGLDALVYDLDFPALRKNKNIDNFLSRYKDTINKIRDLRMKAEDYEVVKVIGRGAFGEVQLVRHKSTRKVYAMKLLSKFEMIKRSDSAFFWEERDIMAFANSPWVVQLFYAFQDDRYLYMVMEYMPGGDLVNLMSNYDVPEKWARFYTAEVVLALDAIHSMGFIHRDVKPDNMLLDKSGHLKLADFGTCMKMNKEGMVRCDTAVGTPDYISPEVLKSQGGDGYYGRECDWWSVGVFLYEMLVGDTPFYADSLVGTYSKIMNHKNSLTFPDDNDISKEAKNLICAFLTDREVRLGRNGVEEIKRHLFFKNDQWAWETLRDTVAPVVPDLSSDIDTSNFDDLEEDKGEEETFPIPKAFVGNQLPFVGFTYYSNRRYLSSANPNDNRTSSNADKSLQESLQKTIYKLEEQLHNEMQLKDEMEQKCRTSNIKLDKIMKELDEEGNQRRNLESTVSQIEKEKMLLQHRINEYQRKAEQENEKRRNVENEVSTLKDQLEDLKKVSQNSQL
# test.details: Rho kinase inhibition assay (IMAP fluorescence polarization), ROCK1;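 also: kinase reaction run 60 min at room temperature, then phosphorylated substrate captured on IMAP beads for 30 min, with fluorescence polarization read in mP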
# Type: biochemical
# condition.set: average Ki
metric: Ki (µM)
Give bare numbers, in µM.

These recorded examples may help you get a feel for the data.
CCS(=O)(=O)Nc1cccc(CN2CC[C@@H](Nc3cccc4cnccc34)C2)c1 | 0.0308
CC(=O)NCc1cccc(CN2CCC[C@H](Nc3ccc4[nH]ncc4c3)C2)c1 | 0.12

Kindly give each listed record's Ki.
1. COc1ccc(CN2CCC[C@H](Nc3ccc4[nH]ncc4c3)C2)cc1
2. CCS(=O)(=O)Nc1cc(CN2CCC[C@@H](Nc3ccc4[nH]ncc4c3)C2)ccc1C
3. COc1ccc(CN2CC[C@@H](Nc3cccc4cnccc34)C2)cc1OCCO
4. CS(=O)(=O)Nc1cccc(CN2CCC[C@@H](Nc3ccc4[nH]ncc4c3)C2)c1
5. CCCS(=O)(=O)Nc1cc(CN2CCC[C@H](Nc3ccc4[nH]ncc4c3)C2)ccc1C
6. CCS(=O)(=O)Nc1cccc(CN2CCC[C@H](Nc3ccc4[nH]ncc4c3)C2)c1
7. C#Cc1ccc(CN2CC[C@@H](Nc3cccc4cnccc34)C2)cc1
8. OCCn1ccc2cc(CN3CC[C@@H](Nc4cccc5cnccc45)C3)ccc21

Reply:
1: 0.0715; 2: 0.0195; 3: 0.0196; 4: 0.0645; 5: 0.0612; 6: 0.0645; 7: 0.0146; 8: 0.0102

Query: Dear colleague, I am looking for the recorded Ki of the following compound: Cc1ccc(CN2CCC[C@H](Nc3ccc4[nH]ncc4c3)C2)cc1NS(C)(=O)=O
Reply: 0.0472

---

# test.target: Mnk2 (Homo sapiens, UniProt Q9HBH9)
# Construct: purchased Upstate, Millipore Bioscience Division (KinaseProfiler service)
# Sequence (Q9HBH9 whole entry): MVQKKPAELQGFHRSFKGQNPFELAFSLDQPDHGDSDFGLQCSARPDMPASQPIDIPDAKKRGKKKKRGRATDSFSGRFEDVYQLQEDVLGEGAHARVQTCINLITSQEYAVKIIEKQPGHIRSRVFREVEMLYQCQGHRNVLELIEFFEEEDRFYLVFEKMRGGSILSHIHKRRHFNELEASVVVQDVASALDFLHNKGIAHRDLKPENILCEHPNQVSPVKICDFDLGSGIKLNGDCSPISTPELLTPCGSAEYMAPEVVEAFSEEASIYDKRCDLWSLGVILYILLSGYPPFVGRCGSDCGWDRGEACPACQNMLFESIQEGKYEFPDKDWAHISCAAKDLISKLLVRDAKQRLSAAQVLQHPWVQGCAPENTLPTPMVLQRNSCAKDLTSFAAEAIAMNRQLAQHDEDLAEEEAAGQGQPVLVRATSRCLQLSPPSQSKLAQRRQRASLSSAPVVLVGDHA
# test.details: Kinase panel screen (KinaseProfiler), Mnk2
# Format: biochemical
# condition.set: 1 μM test compound, 10 μM ATP; read-out: Mnk2 Percent inhibition, 1 μM
Consider the following compounds; for each one, report its activity at 1 µM.
Answers are plain numbers, in %.

NC(=O)Cn1ccc2cc(CN3CC[C@@H](Nc4cccc5cnccc45)C3)ccc21 | 49
OCCn1ccc2cc(CN3CC[C@@H](Nc4cccc5cnccc45)C3)ccc21 | 99
Cc1ccc(CN2CCC[C@@H](Nc3ccc4[nH]ncc4c3)C2)cc1OCCO | 108

Attention now turns to another entry.
Query: Could you tell me which activity at 1 µM is on file for NC(=O)Cn1ccc2cc(CN3CCC[C@@H](Nc4ccc5[nH]ncc5c4)C3)ccc21 ?
Reply: 111

---

# test.target: Akt3 human enzyme (Homo sapiens, UniProt Q9Y243)
# Construct: purchased Upstate Chemicon 14-502
# Sequence (Q9Y243 whole entry): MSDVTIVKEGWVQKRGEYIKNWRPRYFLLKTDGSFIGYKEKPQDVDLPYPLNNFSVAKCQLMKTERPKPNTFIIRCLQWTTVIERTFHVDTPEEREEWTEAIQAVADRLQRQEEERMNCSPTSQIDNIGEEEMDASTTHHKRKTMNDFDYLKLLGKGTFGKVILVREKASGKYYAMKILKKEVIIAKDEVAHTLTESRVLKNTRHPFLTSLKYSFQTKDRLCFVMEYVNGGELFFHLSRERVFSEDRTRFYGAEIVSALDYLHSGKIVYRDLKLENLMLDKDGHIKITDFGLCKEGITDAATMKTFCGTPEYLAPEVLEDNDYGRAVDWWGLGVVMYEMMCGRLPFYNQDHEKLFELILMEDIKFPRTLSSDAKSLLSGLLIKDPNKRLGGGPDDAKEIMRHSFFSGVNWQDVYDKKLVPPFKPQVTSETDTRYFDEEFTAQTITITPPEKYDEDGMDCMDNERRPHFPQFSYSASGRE
# test.details: Akt3 inhibition assay (IMAP FP);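 also: kinase reaction run 60 min at room temperature after 30 µM ATP start, phosphorylated substrate captured on IMAP beads and read as fluorescence polarization (mP)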
# Assay type: biochemical
# condition.set: 30 μM ATP; Ki=IC50/(1+([ATP Challenge]/EC50 ATP)); read-out: Akt3 Ki, Avg
Consider the following molecules; for each one, report its pKi.
Numbers only, as −log10 of the molar value.

The following molecules have reported results that may help.
Clc1cccc(CN2CCC[C@H](Nc3ccc4[nH]ncc4c3)C2)c1 | 5.11
NC(=O)Cn1ccc2cc(CN3CCC[C@@H](Nc4ccc5[nH]ncc5c4)C3)ccc21 | 7.04
Cc1ccc(CN2CCC[C@@H](Nc3ccc4[nH]ncc4c3)C2)cc1 | 6.83
CS(=O)(=O)Nc1cc(CN2CCC[C@@H](Nc3ccc4[nH]ncc4c3)C2)ccc1Cl | 6.41
CCS(=O)(=O)Nc1cc(CN2CCC[C@H](Nc3ccc4[nH]ncc4c3)C2)ccc1C | 5.59
Cc1ccc(CN2CCC[C@@H](Nc3ccc4[nH]ncc4c3)C2)cc1OCCO | 7.20
c1ccc(CN2CCC[C@H](Nc3ccc4[nH]ncc4c3)C2)cc1 | 5.46

Below: the item to evaluate.
Query: Need pKi of OCCn1ccc2ccc(CN3CCC[C@H](Nc4ccc5[nH]ncc5c4)C3)cc21 , thanks.
Reply: 5.28

---

# test.target: p70S6K human enzyme (Homo sapiens, UniProt P23443, T412E)
# Construct: purchased Upstate Chemicon 14-486
# Sequence (P23443 1-421 T412E limits assumed): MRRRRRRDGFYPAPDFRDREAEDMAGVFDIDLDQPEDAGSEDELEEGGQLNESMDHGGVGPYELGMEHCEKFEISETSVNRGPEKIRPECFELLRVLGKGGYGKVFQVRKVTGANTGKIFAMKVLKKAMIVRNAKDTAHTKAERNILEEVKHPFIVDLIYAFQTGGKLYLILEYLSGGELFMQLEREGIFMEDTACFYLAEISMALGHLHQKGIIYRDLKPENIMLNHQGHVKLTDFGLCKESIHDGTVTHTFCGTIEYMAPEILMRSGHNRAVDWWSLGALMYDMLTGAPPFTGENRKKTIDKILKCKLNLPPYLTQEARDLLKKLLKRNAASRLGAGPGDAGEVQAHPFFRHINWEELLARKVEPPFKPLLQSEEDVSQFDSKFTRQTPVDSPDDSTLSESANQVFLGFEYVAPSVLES
# test.details: p70S6K inhibition assay (IMAP FP);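 also: kinase reaction run at room temperature, phosphorylated substrate captured on IMAP beads and read as fluorescence polarization in mP, IC50 then converted to Ki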
# Assay type: biochemical
# condition.set: 30 μM ATP; Ki=IC50/(1+([ATP Challenge]/EC50 ATP)); read-out: p70S6K Ki, Avg
metric: pKi
Answers are plain numbers, as −log10 of the molar value.

Record excerpt, results attached:
CCc1ccc(CN2CCC[C@H](Nc3ccc4[nH]ncc4c3)C2)cc1 | 5.95
CSc1ccc(CN2CCC[C@H](Nc3ccc4[nH]ncc4c3)C2)cc1 | 6.01
c1ccc2c(CN3CCC[C@@H](Nc4ccc5[nH]ncc5c4)C3)c[nH]c2c1 | 6.77
CCOC(=O)COc1cccc(CN2CCC[C@H](Nc3ccc4[nH]ncc4c3)C2)c1 | 5.41
Fc1ccc(CN2CCC[C@H](Nc3ccc4[nH]ncc4c3)C2)cc1 | 5.71

Please report pKi for every entry that follows.
1. c1cc2cc(CN3CCC[C@H](Nc4ccc5[nH]ncc5c4)C3)ccc2[nH]1
2. NC(=O)Cn1ccc2cc(CN3CCC[C@@H](Nc4ccc5[nH]ncc5c4)C3)ccc21
3. NC(=O)c1cccc(CN2CCC[C@H](Nc3ccc4[nH]ncc4c3)C2)c1

Reply:
5.72
6.41
5.30

---

# test.target: ROCK2 (Homo sapiens)
# Construct: purchased Upstate/Chemicon 14-451
# test.details: Rho kinase inhibition assay (IMAP fluorescence polarization), ROCK2
# Assay type: biochemical
# condition.set: average Ki; read-out: ROCK2 Ki
metric: Ki (nM)
Give bare numbers, in nM.

In the examples that follow, each entry is paired with its recorded Ki.
NC(=O)c1cccc(CN2CCC[C@H](Nc3ccc4[nH]ncc4c3)C2)c1 [Compound 1.219] | 15.4
Cc1ccc(CN2CC[C@@H](Nc3cccc4cnccc34)C2)cc1 [Compound 2.025] | 2.9
Cc1ccc(CN2CC[C@@H](Nc3cccc4cnccc34)C2)cc1OCC(N)=O [Compound 2.099] | 3.8
O=S(=O)(Nc1cccc(CN2CC[C@@H](Nc3cccc4cnccc34)C2)c1)N1CCCCC1 [Compound 2.069] | 2.4
Cc1ccc(CN2CCC[C@H](Nc3ccc4[nH]ncc4c3)C2)c(C)c1 [Compound 1.155] | 7

Provide Ki values for the following items, in order.
1. c1cc(CN2CCC[C@H](Nc3ccc4[nH]ncc4c3)C2)cc(C2CC2)c1 [Compound 1.186]
2. COc1ccc(CN2CCC[C@H](Nc3ccc4[nH]ncc4c3)C2)cc1 [Compound 1.079]
3. CCOC(=O)COc1cccc(CN2CCC[C@H](Nc3ccc4[nH]ncc4c3)C2)c1 [Compound 1.200]

Reply:
1: 11.9; 2: 4.7; 3: 5.9

---

Would you mind telling me the reported Ki of each entry?
# test.target: ROCK2 (Homo sapiens, UniProt O75116)
# Construct: purchased Upstate/Chemicon 14-451
# Sequence (O75116 11-552 limits assumed): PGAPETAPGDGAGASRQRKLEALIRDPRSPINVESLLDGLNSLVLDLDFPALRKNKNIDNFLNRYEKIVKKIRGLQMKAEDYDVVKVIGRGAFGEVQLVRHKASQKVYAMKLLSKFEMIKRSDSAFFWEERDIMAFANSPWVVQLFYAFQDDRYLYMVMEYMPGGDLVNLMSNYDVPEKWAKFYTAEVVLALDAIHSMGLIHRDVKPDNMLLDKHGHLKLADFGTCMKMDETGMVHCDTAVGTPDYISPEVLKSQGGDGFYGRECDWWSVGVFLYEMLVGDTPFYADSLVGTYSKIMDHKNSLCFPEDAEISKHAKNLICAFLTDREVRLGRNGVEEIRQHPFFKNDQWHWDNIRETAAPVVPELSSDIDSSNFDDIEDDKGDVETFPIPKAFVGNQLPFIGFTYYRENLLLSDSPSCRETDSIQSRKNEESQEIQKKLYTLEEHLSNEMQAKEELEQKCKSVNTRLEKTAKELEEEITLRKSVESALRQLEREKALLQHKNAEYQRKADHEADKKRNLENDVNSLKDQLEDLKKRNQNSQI
# test.details: Rho kinase inhibition assay (IMAP fluorescence polarization), ROCK2
# Assay type: biochemical
# condition.set: average Ki; read-out: ROCK2 Ki
Note: a bare number is incomplete; add the unit.

Worked set:
c1cc2cc(CN3CCC[C@H](Nc4ccc5[nH]ncc5c4)C3)ccc2s1 [Compound 1.175] | 7.6 nM
Cc1ccc(CN2CCC[C@@H](Nc3ccc4[nH]ncc4c3)C2)c(C)c1 [Compound 1.137] | 7.2 nM
CCS(=O)(=O)Nc1cc(CN2CCC[C@@H](Nc3ccc4[nH]ncc4c3)C2)ccc1C [Compound 1.259] | 2.1 nM

Consider the following items and state reported Ki for each.
1. NS(=O)(=O)c1cccc(CN2CCC[C@H](Nc3ccc4[nH]ncc4c3)C2)c1 [Compound 1.215]
2. c1cc2c(cc1CN1CCC[C@H](Nc3ccc4[nH]ncc4c3)C1)OCCO2 [Compound 1.166]
3. COc1ccc(CN2CC[C@@H](Nc3cccc4cnccc34)C2)cc1OCCO [Compound 2.067]
4. CCCS(=O)(=O)Nc1cc(CN2CCC[C@H](Nc3ccc4[nH]ncc4c3)C2)ccc1C [Compound 1.238]
5. OCCn1cc(CN2CCC[C@@H](Nc3ccc4[nH]ncc4c3)C2)c2ccccc21 [Compound 1.273]

Reply:
1: 3.5 nM; 2: 8 nM; 3: 4.2 nM; 4: 1.5 nM; 5: 8.2 nM

---

# test.target: ROCK2 (Homo sapiens)
# Construct: purchased Upstate/Chemicon 14-451
# test.details: Rho kinase inhibition assay (IMAP fluorescence polarization), ROCK2
# Assay type: biochemical
# condition.set: average Ki; read-out: ROCK2 Ki
Could you please report measured Ki for the items listed next?
One number for each entry, in nM.

Solved entries (count: 4):
CCS(=O)(=O)Nc1cccc(CN2CCC[C@@H](Nc3ccc4[nH]ncc4c3)C2)c1 [Compound 1.123] | 9.6
NS(=O)(=O)c1cccc(CN2CCC[C@@H](Nc3ccc4[nH]ncc4c3)C2)c1 [Compound 1.249] | 8.6
OCCn1ccc2ccc(CN3CC[C@@H](Nc4cccc5cnccc45)C3)cc21 [Compound 2.060] | 3.2
C#Cc1ccc(CN2CCC[C@@H](Nc3ccc4[nH]ncc4c3)C2)cc1 [Compound 1.076] | 2.6

Kindly give each listed record's Ki.
1. CCc1ccc(CN2CCC[C@@H](Nc3ccc4[nH]ncc4c3)C2)cc1 [Compound 1.136]
2. OCCn1ccc2ccc(CN3CCC[C@H](Nc4ccc5[nH]ncc5c4)C3)cc21 [Compound 1.109]
3. CSc1nccc(CN2CC[C@@H](Nc3cccc4cnccc34)C2)n1 [Compound 2.082]
4. Clc1ccc(CN2CCC[C@@H](Nc3ccc4[nH]ncc4c3)C2)cc1 [Compound 1.132]

Reply:
[5.1, 9.6, 9, 3.5]
